Compiled from multiple publications: pKi readings for Coagulation factor X (Homo sapiens, UniProt P00742).
Quick note: pKi means taking -log10 of the concentration in moles per liter.

Please provide the recorded pKi for COC(=O)C(=O)NC(CCc1cccc[n+]1[O-])C(=O)NCC(=O)NCc1cc(Cl)ccc1CN (stereo not given) , tested on Coagulation factor X (Homo sapiens, UniProt P00742). 8.31

Please provide the recorded pKi for CC1(C(=O)O)CCCN(c2ccc(N3C[C@H](CNC(=O)c4cnc(N)s4)OC3=O)cc2)C1=O.O=C(O)C(F)(F)F (stereo not given in full) , tested on Coagulation factor X (Homo sapiens, UniProt P00742). 4.95

Please provide the recorded pKi for Cc1ccc(NS(=O)(=O)Cc2ccc(F)cc2Cl)c(=O)n1CC(=O)NC1CCc2nc(N)sc2C1 (stereo not given) , tested on Coagulation factor X (Homo sapiens, UniProt P00742). 4.16

Please provide the recorded pKi for COC(=O)c1cc2ccc(OC3CCN(C(C)=N)CC3)cc2n1Cc1ccc2ccc(C(=N)N)cc2c1 , tested on Coagulation factor X (Homo sapiens, UniProt P00742). 9.70

Please provide the recorded pKi for COC(=O)c1c(C)c2ccccc2n1Cc1cccc(C(=N)N)c1 , tested on Coagulation factor X (Homo sapiens, UniProt P00742). 5.06

Please provide the recorded pKi for CN(CC(=O)N[C@@H](CCCCN)C(=O)C(=O)Nc1ccc(Oc2cccc(N)c2)cc1)C(=O)c1ccccc1Sc1ccccc1C#N , tested on Coagulation factor X (Homo sapiens, UniProt P00742). 6.92

Please provide the recorded pKi for CS(=O)(=O)c1ccccc1-c1ccc(N2CCCC(NS(=O)(=O)c3cccc4cc(Cl)ccc34)C2=O)c(F)c1 (stereo not given) , tested on Coagulation factor X (Homo sapiens, UniProt P00742). 8.66

Please provide the recorded pKi for Cn1ccnc1-c1cccc(Oc2cc(C(=O)O)cc(Oc3cc(C(=N)N)ccc3O)n2)c1 , tested on Coagulation factor X (Homo sapiens, UniProt P00742). 8.05

Please provide the recorded pKi for CNCc1ccccc1N1CCC(NC(=O)c2cc(C(F)(F)F)nn2-c2ccc3onc(N)c3c2)CC1 , tested on Coagulation factor X (Homo sapiens, UniProt P00742). 9.17

Please provide the recorded pKi for COC(=O)COc1ccc(C(=N)N)cc1CN1CCC(NS(=O)(=O)c2ccc3ccc(OC)cc3c2)C1=O (stereo not given) , tested on Coagulation factor X (Homo sapiens, UniProt P00742). 8.10

Please provide the recorded pKi for CN1CC(C)(COc2ccc(C(=N)N)cc2)Oc2ccc(N(Cc3ccc(F)cc3)C(=O)C(=O)O)cc21 (stereo not given) , tested on Coagulation factor X (Homo sapiens, UniProt P00742). 4.79

Please provide the recorded pKi for N=C(N)c1cccc(CN2CC[C@H](NS(=O)(=O)c3ccc(-c4cc[n+]([O-])cc4)cc3)C2=O)c1 , tested on Coagulation factor X (Homo sapiens, UniProt P00742). 6.48

Please provide the recorded pKi for COC(=O)CC(CCc1ccc(NS(=O)(=O)c2ccccc2)cc1)c1cccc(C(=N)N)c1 (stereo not given) , tested on Coagulation factor X (Homo sapiens, UniProt P00742). 5.96

Please provide the recorded pKi for CC(=O)N1CCC(Oc2ccc(N(C/C=C/c3cc(C(=N)N)ccc3O)C(=O)CCC(=O)O)cc2C(F)(F)F)CC1 , tested on Coagulation factor X (Homo sapiens, UniProt P00742). 8.52

Please provide the recorded pKi for CN1CCCC1CCN(Cc1ccc2ccc(C(=N)N)cc2c1)C(=O)c1cccc2ccccc12 (stereo not given) , tested on Coagulation factor X (Homo sapiens, UniProt P00742). 6.95

Please provide the recorded pKi for COC(=O)CC1(C(=O)Nc2cccc(C(=N)N)c2)CC(c2ccc(C(=N)N)cc2)=NO1 (stereo not given) , tested on Coagulation factor X (Homo sapiens, UniProt P00742). 6.93

Please provide the recorded pKi for N=C(N)c1ccc(/C=C2/CCCCC/C(=C\c3ccc(C(=N)N)cc3)C2=O)cc1 , tested on Coagulation factor X (Homo sapiens, UniProt P00742). 6.89

Please provide the recorded pKi for N=C(N)c1cccc(C(=O)N[C@@H](C(=O)NCCc2ccccc2)c2ccccc2)c1 , tested on Coagulation factor X (Homo sapiens, UniProt P00742). 6.07

Please provide the recorded pKi for N=C(N)c1cccc(N2CCCCN(C3CCN(S(=O)(=O)c4ccccc4N)CC3)C2=O)c1 , tested on Coagulation factor X (Homo sapiens, UniProt P00742). 7.47

Please provide the recorded pKi for CC(C)CNCc1ccccc1NC(=O)OCC(Oc1cccc2sc(C(=N)N)cc12)c1ccccc1 (stereo not given) , tested on Coagulation factor X (Homo sapiens, UniProt P00742). 6.23

Please provide the recorded pKi for COC(=O)CC(CCc1ccc(NS(C)(=O)=O)cc1)c1cccc(C(=N)N)c1 (stereo not given) , tested on Coagulation factor X (Homo sapiens, UniProt P00742). 6.18

Please provide the recorded pKi for CC(C)CCN(Cc1ccc2ccc(C(=N)N)cc2c1)C(=O)c1cccc2ccccc12 , tested on Coagulation factor X (Homo sapiens, UniProt P00742). 6.58

Please provide the recorded pKi for CCOc1cc(C(Nc2ccc3c(N)nccc3c2)C(=O)NS(=O)(=O)c2cccc(O)c2)ccc1OC(C)C (stereo not given) , tested on Coagulation factor X (Homo sapiens, UniProt P00742). 5.26

Please provide the recorded pKi for Cc1ccc(NC(=O)c2sc3ccccc3c2Cl)c(C(=O)Nc2ccc(C#N)cc2)c1 , tested on Coagulation factor X (Homo sapiens, UniProt P00742). 6.82

Please provide the recorded pKi for CCOC(=O)C(C(=O)Nc1ccc2c(c1)OC(OCc1ccc(C(=N)N)cc1)C(=O)N2C)c1ccccc1 (stereo not given) , tested on Coagulation factor X (Homo sapiens, UniProt P00742). 4.30

Please provide the recorded pKi for CC(C)COC(=O)OC[C@@H](NS(=O)(=O)Cc1ccccc1)C(=O)N[C@@H](C)C(=O)NCc1ccc(C(=N)N)cc1 , tested on Coagulation factor X (Homo sapiens, UniProt P00742). 6.39

Please provide the recorded pKi for CC(C)CN1CC(NC(=O)c2cc3ccccc3n2Cc2cc(-c3ccc(Cl)s3)on2)C1 , tested on Coagulation factor X (Homo sapiens, UniProt P00742). 6.46

Please provide the recorded pKi for C#Cc1ccc(-c2cc(Cn3c(C(=O)NC4CCN(C(C)C)CC4)cc4ccccc43)no2)s1 , tested on Coagulation factor X (Homo sapiens, UniProt P00742). 7.89

Please provide the recorded pKi for Nc1noc2ccc(-n3nc(C(F)(F)F)c4c3C(=O)N(c3ccc(-c5ccccc5CN5CCOCC5)cc3)CC4)cc12 , tested on Coagulation factor X (Homo sapiens, UniProt P00742). 9.46

Please provide the recorded pKi for Cc1cc(C(=O)Nc2ccc(-c3ccccc3S(N)(=O)=O)cc2)n(-c2ccc(N)cc2)n1 , tested on Coagulation factor X (Homo sapiens, UniProt P00742). 5.52

Please provide the recorded pKi for CN(C)C(=N)c1ccc(/C=C2\CCCC/C(=C\c3ccc(C(=N)N)cc3)C2=O)cc1 , tested on Coagulation factor X (Homo sapiens, UniProt P00742). 6.46
